Measured LogP, listed per entry for reference.
assay.name: logP by reversed-phase HPLC (EEC Directive 79/831 Annex V.A8)
Format: physicochemical
condition.set: HPLC C18, 40° C., 0.1% aqueous formic acid / acetonitrile gradient
measure: LogP

| compound | experimental.value |
| --- | --- |
| Cn1nnnc1C(=NOCc1csc(NC(=O)c2ccccc2)n1)c1csc(-c2ccccc2)n1 [Compound 169] | 3.62 |
| CCCCCCCCC(=O)Nc1nc(CON=C(c2ccc(-c3ccc(Cl)c(Cl)c3)o2)n2nnnc2C)cs1 [Compound 83] | 5.85 |
| CCCCCOC(=O)Nc1nc(CON=C(c2csc(-c3ccccc3)n2)c2nnnn2C)cs1 [Compound 167] | 4.29 |
| CCCCCC(=O)Nc1cccc(CON=C(c2ccsc2)n2nnnc2C)n1 [Compound 36] | 3.39 |
| Cc1ccc(C(=NOCc2csc(N)n2)n2nnnc2C)s1 [Compound 113] | 1.8 |
| Cc1nnnn1C(=NOCc1csc(N)n1)c1cc(-c2ccccc2)c(Cl)s1 [Compound 76] | 2.86 |
| COCCOC(=O)Nc1nc(CON=C(c2ccc(C)o2)n2nnnc2C)cs1 [Compound 71] | 2.37 |
| Cc1ccc(C(=NOCc2cccc(N)n2)n2nnnc2C)s1 [Compound 124] | 1.51 |
| Cc1nnnn1C(=NOCc1csc(NC(=O)CCc2ccccc2)n1)c1ccc(Cl)s1 [Compound 108] | 3.85 |
| Cc1nnnn1C(=NOCc1csc(NC(=O)Cc2ccccc2)n1)c1ccc(Br)s1 [Compound 93] | 3.53 |
| CCCCCOC(=O)Nc1cccc(CON=C(c2ccc(C)s2)n2nnnc2C)n1 [Compound 126] | 4.34 |
| Cc1nnnn1C(=NOCc1csc(NC(=O)C2CC2)n1)c1ccc(-c2ccccc2)s1 [Compound 55] | 3.7 |
| CCCCCOC(=O)Nc1cccc(CON=C(c2ccc(C)o2)n2nnnc2C)n1 [Compound 74] | 4.04 |
| Cc1nnnn1C(=NOCc1csc(NC(=O)Cc2ccccc2)n1)c1ccsc1 [Compound 32] | 2.9 |
| Cc1nnnn1C(=NOCc1csc(NC(=O)C(C)C)n1)c1ccc(-c2ccccc2)o1 [Compound 134] | 3.27 |
| Cc1nnnn1C(=NOCc1csc(NC(=O)C2CCCC2)n1)c1ccsc1 [Compound 39] | 3.05 |
| CCCCCC(=O)Nc1nc(CON=C(c2ccc(-c3ccccc3)o2)n2nnnc2C)cs1 [Compound 133] | 3.8 |
| CCCCCC(=O)Nc1nc(CON=C(c2csc(-c3ccccc3)n2)c2nnnn2C)cs1 [Compound 171] | 3.94 |
| Cc1nnnn1C(=NOCc1csc(NC(=O)C(C)(C)C)n1)c1ccc(Cl)s1 [Compound 102] | 3.73 |
| Cc1nnnn1C(=NOCc1csc(NC(=O)c2ccccc2)n1)c1ccsc1 [Compound 35] | 2.93 |
| CCCCCCCCC(=O)Nc1nc(CON=C(c2ccsc2)n2nnnc2C)cs1 [Compound 41] | 4.51 |
| CCCCCCCCC(=O)Nc1nc(CON=C(c2cc(-c3ccccc3)c(Cl)s2)n2nnnc2C)cs1 [Compound 78] | 5.94 |

Each recorded value in this set is attributed to patent US8119645B2.
